Hello, the source for this data is ChEMBL document CHEMBL1201862, in case you need it.

- System: COLO 205
- EXPERIMENTAL_PROTOCOL: NCI tumour cell line growth inhibition, 48 h
Activity calls are given as the source filed them. Cut-off read from the data, not from the text of the source: active = GI50 up to about 1.1 µM and inactive = higher. Where a SMILES comes first, the peptide text is derived from it. [ ]: non-standard residue; d: D form. Ac5c = NC1(C(=O)O)CCCC1
Response enum: Y = active, N = inactive

Some solved entries appear below for comparison.
C/C1=C\[C@@H](O)C(=O)/C=C/C=C\c2csc(n2)[C@@H](C)NC(=O)C[C@@]2(CC1)[S+]([O-])SC(=O)[C@]2(C)O (stereo not given in full) : Y
O=C(/C=C/c1ccccc1)CCC1C(=O)c2ccccc2C1=O : N
COc1cc(/C=C2\N=C(c3ccccc3)N(c3nc4ccc(Sc5ccccc5)cc4[nH]3)C2=O)ccc1O : N
NC1(C(=O)NC2(C(=O)O)CCCC2)CCCC1 (H-[Ac5c]-[Ac5c]-OH) : N
CN1C(=O)C2(Cc3cn(C45CC67SSC(CO)(C(=O)N6C4Nc4ccccc45)N(C)C7=O)c4ccccc34)SSC1(CO)C(=O)N2C (stereo not given) : Y

Note: attention shifts to another entry.
Each molecule tested received a call. Report the one for "O=C1c2ccccc2C(=O)c2c1ccc(C(=O)O)c2-c1ccc2ccccc2c1" .
N

###

- Test system: TK-10
- EXPERIMENTAL_PROTOCOL: NCI tumour cell line growth inhibition, 48 h
Where a name gives a salt, the structure may show the parent alone. Activity calls are given as the source filed them. Cut-off read from the data, not from the text of the source: active = GI50 up to about 1.1 µM and inactive = higher.
Documented GI50 across a set of compounds

O=[N+]([O-])c1c(O)c2nonc2c2nn(-c3ccccc3)nc12 : 55.3 µM (inactive)

GI50 for "CC[C@H](C)N(CCN)C(=O)c1cc2ccccc2c(-c2ccccc2Cl)n1" ?
12.1 µM (inactive)

GI50 for COc1ccc2c(=O)c(C)c(-c3ccccc3)oc2c1CN(C)C [DIMEFLINE HYDROCHLORIDE] ?
99.8 µM (inactive)

GI50 for "Cc1cc2cc3c(O)nc(O)nc3nc2cc1C" ?
> 100 µM (inactive)

GI50 for "CN(C)c1nncc2[nH]cnc12" ?
> 100 µM (inactive)

###

- Tested on: NCI-H522
- EXPERIMENTAL_PROTOCOL: NCI tumour cell line growth inhibition, 48 h
Activity calls are given as the source filed them. Rule as the data show it: active = GI50 up to about 1.1 µM and inactive = higher.
Documented GI50 across a set of compounds

Take a look at these entries with their results.
N#CC(c1nc2ccccc2s1)c1nc(Cl)ncc1Br (configuration not stated) : 20.7 µM (inactive)
C[N+]12C=CC=C1C(N1CCCC1)c1scc(-c3ccc(F)cc3)c12 (configuration not stated) : 17.6 µM (inactive)
OC(c1cc(C23CC4CC(CC(C4)C2)C3)nc2c(Cl)cc(Cl)cc12)C1CCCCN1 (configuration not stated) : 1.57 µM (inactive)
Cc1cnc(Cl)nc1C(C#N)c1nc2ccccc2n1C (configuration not stated) : 15.1 µM (inactive)
COC(=O)c1ccccc1/C=C1\Cc2ccc3ccccc3c2C1C (configuration not stated) : 16.6 µM (inactive)

GI50 for "O=S(=O)(c1cnccc1N1CCN(CCO)CC1)N1CCCC1" ?
> 100 µM (inactive)

###

- Tested on: SW-620
- EXPERIMENTAL_PROTOCOL: NCI tumour cell line growth inhibition, 48 h
Active and inactive are the calls of the source. Rule as the data show it: active = GI50 up to about 1.1 µM and inactive = higher.
Documented GI50 across a set of compounds

Take a look at these entries with their results.
O=C1C=CC2(CCCCCCC2=O)CC1 (stereo unspecified) : > 100 µM (inactive)
O=C1CCCCCCC2=C1C(Sc1ccccc1)CC2 (stereo unspecified) : 36.3 µM (inactive)
CN(C)CCCNC(=O)N/N=C\c1cccc2ccccc12 : > 10 µM (inactive)
O=C(Nc1ncc([N+](=O)[O-])s1)c1ccccc1O [TIZOXANIDE] : 34.1 µM (inactive)

GI50 for COc1ccc2c(c1)C(=O)N1CCOC1C2C(=O)O (stereo unspecified) ?
> 100 µM (inactive)

GI50 for "O=C(O)CCC(=O)Nc1ccc2c(c1)S(=O)(=O)N(CC(=O)O)C2=O" ?
> 100 µM (inactive)

GI50 for "OCCN(/N=C\c1ccc2ccccc2c1)C1=NCCN1" ?
21.1 µM (inactive)

GI50 for "CN(C)c1ccc(/C=C(/C(=O)O)c2csc(-c3nc(/C(=C\c4ccc(N(C)C)cc4)C(=O)O)cs3)n2)cc1" ?
> 100 µM (inactive)

GI50 for O=C1c2ccccc2-c2ccc(NC(=O)C3CCCCC3C(=O)O)cc21 (stereo unspecified) ?
> 100 µM (inactive)

GI50 for "Cc1nc2cccc(F)c2c(=O)n1-c1nnc(C2CC2)s1" ?
> 10 µM (inactive)

GI50 for OCC1OC(Oc2cc(O)cc(/C=C\c3ccc(O)cc3)c2)C(O)C(O)C1O (stereo unspecified) ?
> 100 µM (inactive)
